tested on: FOXM1^A2 mRNA and FOXM1^BC mRNA; assay: Splicing assay (FOXM1), qPCR of isoform mRNAs; type: cell-based; settings: Homo sapiens, TT, 24 h, T.T cells; 24 hours; table does not say EC50 or IC50; read-out: FOXM1
pIC50: −log10 of the molar value.
Quantity name: pIC50

smiles_notation=CN(c1ccc(-c2ccc(-n3nccn3)cc2O)nn1)[C@@H]1C[C@H]2CC[C@@H](C1)N2 system_under_test="FOXM1^A2 mRNA and FOXM1^BC mRNA" data_value="6.70 to 7.00"
smiles_notation=CN(c1ccc(-c2ccc(-c3cn[nH]c3)cc2O)nn1)[C@@H]1C[C@H]2CC[C@@H](C1)N2 system_under_test="FOXM1^A2 mRNA and FOXM1^BC mRNA" data_value="7.00 to 7.96"

* * *

test system: FOXM1^A2 mRNA and FOXM1^BC mRNA; test: Splicing assay (FOXM1), qPCR of isoform mRNAs; type: cell-based; conditions: FoxM1 A mRNA increase (exon excluded); 0.1-1000 nM, 24 hours; read-out: Splice EC50 (nM), FoxM1 A mRNA increase (exon excluded)
Recorded EC50 for the following compounds
Quantity name: EC50

compound="Cc1nnn(-c2ccc(-c3ccc(N(C)[C@@H]4C[C@H]5CC[C@@H](C4)N5)nn3)c(O)c2)n1 [compound 234]" system_under_test="FOXM1^A2 mRNA and FOXM1^BC mRNA" quantity_name=EC50 data_value="10 to 100 nM"
compound="CN(c1ccc(-c2ccc(-n3nccn3)cc2O)nn1)[C@@H]1C[C@H]2CC[C@@H](C1)N2 [compound 223]" system_under_test="FOXM1^A2 mRNA and FOXM1^BC mRNA" quantity_name=EC50 data_value="< 10 nM"
compound="[2H]C([2H])([2H])n1ncc(-c2ccc(-c3ccc(N(C)[C@@H]4C[C@H]5CC[C@@H](C4)N5)nn3)c(O)c2)cc1=O [compound 282]" system_under_test="FOXM1^A2 mRNA and FOXM1^BC mRNA" quantity_name=EC50 data_value="< 10 nM"
compound="Oc1cc(-n2nccn2)ccc1-c1ccc(O[C@@H]2C[C@H]3CC[C@@H](C2)N3)nn1 [compound 251]" system_under_test="FOXM1^A2 mRNA and FOXM1^BC mRNA" quantity_name=EC50 data_value="10 to 100 nM"

* * *

test system: A-673 cells; experiment: Cell viability, crystal violet staining; assay type: cell-based; conditions: Homo sapiens, A673, cell viability, read-out: A-673 IC50 (nM) Cell viability
Recorded IC50 for the following molecules
Quantity name: IC50

smiles_notation=CN(c1ccc(-c2ccc(-c3cn[nH]c3)cc2O)nn1)[C@H]1C[C@]2(C)COC[C@](C)(C1)N2 system_under_test="A-673 cells" quantity_name=IC50 data_value="10 to 100 nM"
smiles_notation=CN(c1ccc(-c2ccc(-c3cc[nH]c(=O)c3)cc2O)nn1)[C@H]1C[C@]2(C)CC[C@](C)(C1)N2 system_under_test="A-673 cells" quantity_name=IC50 data_value="10 to 100 nM"
smiles_notation=CN(c1cnc(-c2ccc(-c3cn[nH]c3)cc2O)cn1)C1CC(C)(C)NC(C)(C)C1 system_under_test="A-673 cells" quantity_name=IC50 data_value="501 to 1000 nM"
smiles_notation=CN(c1ccc(-c2ccc(-c3cn[nH]c3)cc2O)nn1)[C@@H]1C[C@]2(C)CC[C@](C)(C1)N2 system_under_test="A-673 cells" quantity_name=IC50 data_value="> 1000 nM"
smiles_notation=CN(c1ccc(-c2cc3oc(=O)n(C)c3cc2O)nn1)[C@@H]1C[C@H]2CC[C@@H](C1)N2 system_under_test="A-673 cells" quantity_name=IC50 data_value="251 to 500 nM"
smiles_notation=COc1cc(-c2ccc(-c3ccc(N(C)[C@H]4C[C@]5(C)CC[C@](C)(C4)N5)nn3)c(O)c2)ccc1F system_under_test="A-673 cells" quantity_name=IC50 data_value="251 to 500 nM"
smiles_notation=CN(c1ccc(-c2cc(F)c(-c3cc[nH]c(=O)c3)cc2O)nn1)[C@H]1C[C@]2(C)CC[C@](C)(C1)N2 system_under_test="A-673 cells" quantity_name=IC50 data_value="10 to 100 nM"
